Values from paper PMC4535766

We begin with a simple list: items and their reported MCC at 96 h.
measurement_protocol: Cytotoxicity on macrophages infected with L. donovani
Type: cell-based, mouse
test_context: mouse; infected macrophages; read-out: Cytotox. mac.inf. IC50
Structures can show the parent of a compound that is named as a salt.
Kindly write the number and append the unit.

Study these solved cases before continuing.
>  <compound>
OC(c1cc(C(F)(F)F)nc2c(C(F)(F)F)cccc12)C1CCCCN1 (centres unmarked) [Mefloquine (Hydrochloride), Mefloquine]

>  <MCC at 96 h>
7.23 µM

$$$$
>  <compound>
CN(C)CCCN1c2ccccc2Sc2ccc(C(F)(F)F)cc21 [Triflupromazine]

>  <MCC at 96 h>
28.4 µM

$$$$
>  <compound>
C[C@H]1c2cccc(O)c2C(=O)C2=C(O)[C@]3(O)C(=O)C(C(N)=O)=C(O)[C@@H](N(C)C)[C@@H]3[C@@H](O)[C@@H]21 [Doxycycline]

>  <MCC at 96 h>
67.5 µM

$$$$
>  <compound>
CCN(CC)CCOc1ccc(C(=C(Cl)c2ccccc2)c2ccccc2)cc1 [Clomiphene]

>  <MCC at 96 h>
24.6 µM

$$$$

# ---- query compound ----
Returns the measured MCC at 96 h for the input compound. Input: CSc1ccc2c(c1)N(CCC1CCCCN1C)c1ccccc1S2 (centres unmarked) [Thioridazine]
25.8 µM
